system: neuroblastoma tumor cell lines; experiment: Cellular proliferation assay screen (CellTiter-Glo, 96 hours); assay type: cell-based; details: Homo sapiens; n=7; read-out: EC50 range
recorded.endpoint: EC50

The compound C=CCn1c(=O)c2cnc(Nc3ccc(N4CCN(C)CC4)cc3)nc2n1-c1cccc(C(C)(C)O)n1 , tested on neuroblastoma tumor cell lines, showed EC50 of 120 to 450 nM
